Target: T1, human TL1A extracellular domain with N-terminal HIS and FLAG tag (human, UniProt O95150 72-251)
T1 construct: the whole entry is named; also called TNFSF15
T1 sequence: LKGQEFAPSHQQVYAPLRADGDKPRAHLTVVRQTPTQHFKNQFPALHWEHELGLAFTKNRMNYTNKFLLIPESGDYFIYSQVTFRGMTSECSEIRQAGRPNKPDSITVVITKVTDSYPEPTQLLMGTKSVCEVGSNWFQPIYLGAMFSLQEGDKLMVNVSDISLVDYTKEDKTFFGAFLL
Assay: SPR Run 7, antibody on Protein A, TL1A 5 ug/mL, timepoint 44
readout type: TL1A Binding Level (Early) (RU)
// units = RU; emit number, no label

Input: Find the recorded TL1A Binding Level (Early) belonging to 320-498 (antibody, human IgG1, name in Kabat numbering, V domains shown, full-length human IgG1, lambda) VH: QVQLVQSGAEVKKPGASVKVSCKASGYTFTSYDINWVRQAPGQGLEWMGWLSPNSGNTGYAQKFQGRVTMTADRSTSTAYMELSSLRSEDTAVYYCAREVPETAAFEYWGQGTLVTVSS VL: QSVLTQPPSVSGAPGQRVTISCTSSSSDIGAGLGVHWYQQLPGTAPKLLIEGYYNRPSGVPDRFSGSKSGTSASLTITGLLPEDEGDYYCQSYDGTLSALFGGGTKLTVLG and report it.
Output: 90

Input: I'd like to know its TL1A Binding Level (Early). The binder in question is 320-574 (antibody, human IgG1, name in Kabat numbering, V domains shown, full-length human IgG1, lambda) VH: QVQLVQSGAEVKKPGASVKVSCKASGYTFTSYDINWVRQAPGQGLEWMGWLNPNSGNTGYDQKFQGRVTMTADRSTSTAYMELSSLRSEDTAVYYCAREVPETAAFEYWGQGTLVTVSS VL: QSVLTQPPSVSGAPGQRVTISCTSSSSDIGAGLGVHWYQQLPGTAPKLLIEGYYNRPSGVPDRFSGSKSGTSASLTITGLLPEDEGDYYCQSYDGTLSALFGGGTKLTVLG
Output: 140

Input: Quick check: TL1A Binding Level (Early) of 320-511 (antibody, human IgG1, name in Kabat numbering, V domains shown, full-length human IgG1, lambda) VH: QVQLVQSGAEVKKPGASVKVSCKASGYTFTSYDINWVRQAPGQGLEWMGWLNLNSGNTGYAQKFQGRVTMTADRSTSTAYMELSSLRSEDTAVYYCAREVPETAAFEYWGQGTLVTVSS VL: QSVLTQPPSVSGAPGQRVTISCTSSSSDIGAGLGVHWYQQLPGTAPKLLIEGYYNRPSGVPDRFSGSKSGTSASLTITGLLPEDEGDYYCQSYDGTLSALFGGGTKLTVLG ?
Output: 106

Input: Given the binder 320-505 (antibody, human IgG1, name in Kabat numbering, V domains shown, full-length human IgG1, lambda) VH: QVQLVQSGAEVKKPGASVKVSCKASGYTFTSYDINWVRQAPGQGLEWMGWLNANSGNTGYAQKFQGRVTMTADRSTSTAYMELSSLRSEDTAVYYCAREVPETAAFEYWGQGTLVTVSS VL: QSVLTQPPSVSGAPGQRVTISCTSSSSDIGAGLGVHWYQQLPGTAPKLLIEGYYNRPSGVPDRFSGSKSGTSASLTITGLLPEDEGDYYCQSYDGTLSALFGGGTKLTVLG , what is its reported TL1A Binding Level (Early)?
Output: 118

Input: Entry under review: 320-509 (antibody, human IgG1, name in Kabat numbering, V domains shown, full-length human IgG1, lambda) VH: QVQLVQSGAEVKKPGASVKVSCKASGYTFTSYDINWVRQAPGQGLEWMGWLNHNSGNTGYAQKFQGRVTMTADRSTSTAYMELSSLRSEDTAVYYCAREVPETAAFEYWGQGTLVTVSS VL: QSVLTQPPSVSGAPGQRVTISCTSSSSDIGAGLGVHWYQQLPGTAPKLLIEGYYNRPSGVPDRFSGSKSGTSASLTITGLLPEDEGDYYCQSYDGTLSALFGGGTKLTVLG . Reported TL1A Binding Level (Early)?
Output: 52
